# Protocol details: Half life in Sprague-Dawley rat at 3 mg/kg, po by LC-MS/MS analysis
# Assay type: ADME, organism-based
# Stated conditions: in vivo
Observable: half-life (h)
Field: numeric (h). Do not append units.

Using the record for "O=C(NO)c1ccc(CNC(=O)[C@H]2Cc3c([nH]c4ccccc34)[C@H](c3ccc(Cl)cc3)N2)cc1" , report its half-life.
3.41

* * *

# Protocol details: AUC (0 to last) in Sprague-Dawley rat at 3 mg/kg, po by LC-MS/MS analysis
# Assay type: ADME, organism-based
# Stated conditions: in vivo
Observable: AUC(0-t) (µM·h)
Field: numeric (µM·h). Do not append units.

Using the record for "O=C(NO)c1ccc(CNC(=O)[C@H]2Cc3c([nH]c4ccccc34)[C@H](c3ccc(Cl)cc3)N2)cc1" , report its AUC(0-t).
9.6
